Recorded values, source ChEMBL document CHEMBL5058577.

- Test system: U2OS
- test details: Multiplex assay against U2OS
- Assay type: toxicity, cell-based
- conditions: human, 24 h, 1 µM, compound concentration 1 uM, replicate 2
experimental readout: Population Mitochondria Different-Phenotype (%)
Only the number, expressed in %, is required.

N#Cc1c(Oc2cccc(OS(=O)(=O)CCCC(F)(F)F)c2)cccc1C(F)(F)F = 3

Reported Population Mitochondria Different-Phenotype (%) of N#Cc1cc(F)cc(-c2nc(-c3ccc(F)cn3)no2)c1 : 3

Record Cc1onc(-c2ccccc2Cl)c1C(=O)N(C)c1ccc(Cl)cc1 , field Population Mitochondria Different-Phenotype (%): 5

So for Cc1cnc(-c2cc(N3CCN(C(=O)CCS(C)(=O)=O)CC3)ncc2Cl)c(C)c1 , the logged Population Mitochondria Different-Phenotype (%) turned out to be 5

The measured Population Mitochondria Different-Phenotype (%) associated with CCCCC1=NC2(CCCC2)C(=O)N1Cc1ccc(-c2ccccc2-c2nnn[nH]2)cc1 [IRBESARTAN] reads 2

Recorded result, CC(C)(C)c1cc(NC(=O)Nc2ccc(-c3cn4c(n3)sc3cc(OCCN5CCOCC5)ccc34)cc2)no1 [QUIZARTINIB] , Population Mitochondria Different-Phenotype (%): 4

According to the records, this molecule CN[C@@H](C)C(=O)N[C@H](C(=O)N1CCC[C@H]1C(=O)Nc1snnc1-c1ccccc1)C1CCCCC1 [GDC-0152] displays Population Mitochondria Different-Phenotype (%) of 28

Briefly, Population Mitochondria Different-Phenotype (%) measured for Cc1sc2c(c1C)C(c1ccc(Cl)cc1)=N[C@@H](CC(=O)NCCCCCCCCNC(=O)COc1cccc3c1C(=O)N(C1CCC(=O)NC1=O)C3=O)c1nnc(C)n1-2 (stereo partly drawn) : 2

----------
- Tested on: Fibroblast
- test details: Multiplex assay against human fibroblast
- Format: toxicity, cell-based
- conditions: 48 h, 10 µM, compound concentration 10 uM, replicate 2
The following molecules are shown together with reported Population Mitotic Cells (%) values.
Value expressed in %; do not type the unit.

Some entries whose results are on file:
CC(=O)Nc1cccc2c1c(Sc1ccc(Cl)cc1)c(C)n2CC(=O)O = 60
Br.CS(=O)(=O)Nc1c(O)ccc2c1CCCC2C1=NCCN1 (stereo not drawn) = 66
CCC(=O)N1CCN(c2ccc(-n3c(=O)ccc4cnc5ccc(-c6cnc7ccccc7c6)cc5c43)cc2C(F)(F)F)CC1 = 46
COC[C@@H](c1ccc(C(F)(F)F)cc1)N1CCN(C2(C)CCN(C(=O)c3c(C)ncnc3C)CC2)C[C@@H]1C.O=C(O)/C=C\C(=O)O [VICRIVIROC MALEATE] = 46
CCCCC(=O)N(Cc1ccc(-c2ccccc2-c2nnn[nH]2)cc1)[C@H](C(=O)O)C(C)C = 42
Cc1cnc(-c2cc(N3CCN(C(=O)CCS(C)(=O)=O)CC3)ncc2Cl)c(C)c1 = 25

Entry Cc1c(CC(=O)O)c2cccnc2n1Cc1ccc(S(C)(=O)=O)cc1C(F)(F)F ; Population Mitotic Cells (%) = 41

Record summary for NCCc1cn(S(=O)(=O)c2c(Cl)nc3sccn23)c2ccccc12.O=C(O)C(=O)O : reported Population Mitotic Cells (%) = 25

Population Mitotic Cells (%) for COc1ccccc1N1CCN(C[C@@H](C(=O)NC(C)(C)C)c2ccccc2)CC1.Cl.Cl is 55
